This listing pairs compounds with measured log10 of GI50.
- target: Ba/F3 cells with EGFR Δ19del/T790M/C797S mutation gene stably overexpressed (Homo sapiens, UniProt P00533, T790M/C797S, cells depend on it, form not given)
- Sequence (P00533 with tags, fused parts or gaps DEL746-750/T790M/C797S, form open): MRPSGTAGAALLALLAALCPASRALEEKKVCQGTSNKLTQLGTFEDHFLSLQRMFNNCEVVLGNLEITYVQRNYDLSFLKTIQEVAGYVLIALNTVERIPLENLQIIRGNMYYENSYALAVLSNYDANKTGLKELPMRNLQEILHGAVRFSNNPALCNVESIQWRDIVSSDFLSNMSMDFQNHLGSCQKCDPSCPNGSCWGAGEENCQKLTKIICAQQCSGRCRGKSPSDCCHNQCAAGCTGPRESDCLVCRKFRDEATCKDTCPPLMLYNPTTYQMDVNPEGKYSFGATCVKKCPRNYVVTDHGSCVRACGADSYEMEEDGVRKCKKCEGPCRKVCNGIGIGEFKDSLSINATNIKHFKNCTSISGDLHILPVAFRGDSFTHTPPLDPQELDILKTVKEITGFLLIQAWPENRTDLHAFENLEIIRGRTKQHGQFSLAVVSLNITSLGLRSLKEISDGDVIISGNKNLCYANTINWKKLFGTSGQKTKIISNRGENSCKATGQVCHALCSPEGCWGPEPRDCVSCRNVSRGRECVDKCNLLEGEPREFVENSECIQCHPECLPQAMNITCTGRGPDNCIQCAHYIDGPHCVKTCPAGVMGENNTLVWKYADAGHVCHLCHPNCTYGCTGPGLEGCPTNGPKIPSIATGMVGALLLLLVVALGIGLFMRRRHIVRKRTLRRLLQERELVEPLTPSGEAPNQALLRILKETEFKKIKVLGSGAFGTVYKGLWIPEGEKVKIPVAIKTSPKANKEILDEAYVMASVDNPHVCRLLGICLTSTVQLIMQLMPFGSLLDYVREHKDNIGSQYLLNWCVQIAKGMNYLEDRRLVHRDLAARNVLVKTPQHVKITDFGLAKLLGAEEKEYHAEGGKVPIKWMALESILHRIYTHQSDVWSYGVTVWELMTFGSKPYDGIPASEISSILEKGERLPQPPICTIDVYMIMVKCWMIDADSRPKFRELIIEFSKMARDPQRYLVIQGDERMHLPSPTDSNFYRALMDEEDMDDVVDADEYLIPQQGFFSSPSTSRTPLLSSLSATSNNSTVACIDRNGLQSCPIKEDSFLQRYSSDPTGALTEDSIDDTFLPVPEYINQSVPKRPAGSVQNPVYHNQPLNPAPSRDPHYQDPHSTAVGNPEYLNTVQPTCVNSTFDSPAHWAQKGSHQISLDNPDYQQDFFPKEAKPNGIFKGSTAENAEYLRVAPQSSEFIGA
- protocol.details: Ba/F3-Δ19del/T790M/C797S cell proliferation assay (CellTiter Glo, 72 hours)
- Assay type: cell-based
- test.conditions: Table 2, read-out: EGFR Δ19del/T790M/C797S IC50
Please be aware that the numbers have been log10-transformed from GI50 in µM.

A selection of reference data follows.
C#Cc1cnc(-c2ccc(Nc3nc(Nc4cc(CC)c(N5CCC(N6CCN(C)CC6)CC5)cc4OC)ncc3Br)c(P(C)(C)=O)c2)cn1; -2.14
CCc1cc(Nc2ncc(Br)c(Nc3ccc(-c4cncc(OC)n4)cc3P(C)(C)=O)n2)c(OC)cc1N1CCC(N2CCN(C)CC2)CC1 [Compound 59]; -1.58
CCc1cc(Nc2ncc(Br)c(Nc3ccc(-n4cc(COC)cn4)cc3P(C)(C)=O)n2)c(OC)cc1N1CCC(N2CCN(C)CC2)CC1; -1.74
COc1cnn(-c2ccc(Nc3nc(Nc4cc(C)c(N5CCN(C6CCN(C)CC6)CC5)cc4OC)ncc3Br)c(P(C)(C)=O)c2)c1; -1.84
CCCc1cc(Nc2ncc(Br)c(Nc3ccc(-c4cnn(C)c4)cc3P(C)(C)=O)n2)c(OC)cc1N1CCC(N2CCN(C)CC2)CC1; -2.37

Given the entry CCc1cc(Nc2ncc(Br)c(Nc3ccc(-c4ccccc4)c(C)c3P(C)(C)=O)n2)c(OC)cc1N1CCC(N2CCN(C)CC2)CC1 , report its measured log10 of GI50.
-1.69

Given the entry CCc1cc(Nc2ncc(Br)c(Nc3ccc(-c4ccc(OC)s4)cc3P(C)(C)=O)n2)c(OC)cc1N1CCC(N2CCN(C)CC2)CC1 , report its measured log10 of GI50.
-1.30
